assay: Approximate solubility of pomalidomide at 50°C in 96 solvent compositions (LC); assay type: physicochemical; details: binary solvent mixture (main solvent and co-solvent), 50 °C, organic solvent or mixture, thermodynamic from solid, solvent system G8 of Table 7, read-out: Approximate Measured Solubility
observed property: solubility at 2 h

Q) Give its solubility at 2 h value. Item: Nc1cccc2c1C(=O)N(C1CCC(=O)NC1=O)C2=O (stereo not shown) [Pomalidomide]
A) 410 µg/mL

* * *

assay: Approximate solubility of pomalidomide at 50°C in 96 solvent compositions (LC); type: physicochemical; conditions: binary solvent mixture (main solvent and co-solvent), 50 °C, organic solvent or mixture, thermodynamic from solid, solvent system H12 of Table 7, read-out: Approximate Measured Solubility
observed property: solubility at 2 h (µg/mL)
Numbers only, in µg/mL.

Q) Entry Nc1cccc2c1C(=O)N(C1CCC(=O)NC1=O)C2=O (stereo not shown) [Pomalidomide] has what solubility at 2 h?
A) 2060
